Target: CXCR7 (Homo sapiens, UniProt P25106)
Sequence (P25106 whole entry): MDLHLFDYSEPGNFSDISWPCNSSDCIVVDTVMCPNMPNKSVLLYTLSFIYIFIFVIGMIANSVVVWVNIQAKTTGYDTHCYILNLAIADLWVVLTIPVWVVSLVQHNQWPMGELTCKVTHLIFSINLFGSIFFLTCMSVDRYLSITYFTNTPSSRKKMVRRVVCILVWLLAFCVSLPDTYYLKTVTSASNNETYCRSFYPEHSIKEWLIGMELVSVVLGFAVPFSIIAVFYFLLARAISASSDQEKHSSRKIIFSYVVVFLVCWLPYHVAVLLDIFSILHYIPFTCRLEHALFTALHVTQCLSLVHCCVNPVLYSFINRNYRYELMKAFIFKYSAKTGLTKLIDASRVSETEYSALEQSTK
Sequence (P32121 whole entry partner): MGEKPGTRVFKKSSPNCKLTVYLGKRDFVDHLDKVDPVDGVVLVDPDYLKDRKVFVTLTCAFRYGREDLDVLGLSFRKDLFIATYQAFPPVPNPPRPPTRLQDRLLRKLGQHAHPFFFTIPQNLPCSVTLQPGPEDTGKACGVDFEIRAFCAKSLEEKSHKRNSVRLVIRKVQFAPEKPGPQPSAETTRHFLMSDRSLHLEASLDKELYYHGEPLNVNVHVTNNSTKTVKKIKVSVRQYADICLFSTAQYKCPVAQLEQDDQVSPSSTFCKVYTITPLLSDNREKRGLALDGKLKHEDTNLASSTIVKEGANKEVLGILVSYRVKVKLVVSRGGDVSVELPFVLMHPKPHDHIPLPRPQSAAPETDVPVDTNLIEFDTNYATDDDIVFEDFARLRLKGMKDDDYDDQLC
Test: PathHunter CHO-K1 CXCR7 b-arrestin recruitment assay (CXCR7 agonistic activity)
Conditions: PathHunter CHO-K1 CXCR7 b-arrestin cell line
Counter-ions that a name gives are not always drawn.
parameter: log10(EC50) (log10 of the value in nM)
Give log10 of EC50, with EC50 taken in nM.

Task: Consider the compound `CC(C)CN1CCc2c(cccc2OCC(=O)N(CCN(C)C)Cc2ccccc2)C1` and give its measured log10(EC50).
Output: 1.30

Task: Would you kindly repeat that for `CCNC(=O)N1CCc2c(cccc2NCC(=O)N(CCNC)Cc2ncccc2C(F)(F)F)C1` ?
Output: 0.85

Task: Would you kindly repeat that for `C[C@H](Nc1cccc2c1CCN(CC1CC1)C2)C(=O)N(CCN(C)C)Cc1ccccc1C(F)(F)F` ?
Output: 1.96

Task: Would you kindly repeat that for O=C(/C=C/c1cccc2c1CCN(CC1CC1)C2)N(Cc1ccccc1)C1CCS(=O)(=O)C1 (centres unmarked) ?
Output: 1.20

Task: Would you kindly repeat that for `CN(C)CCN(Cc1ccccc1Cl)C(=O)COc1cccc2c1CCN(CC1CC1)C2` ?
Output: 0.30

Task: Would you kindly repeat that for `CN(C)CCN(Cc1ccccc1C(F)(F)F)C(=O)CNc1cccc2c1CCN(C1CCC1)C2` ?
Output: 0.60

Task: Would you kindly repeat that for `CS(=O)(=O)CCN(Cc1ccccc1C(F)(F)F)C(=O)CNc1cccc2c1CCN(CC1CC1)C2` ?
Output: 1.58

Task: Would you kindly repeat that for `COCCN1CCc2c(cccc2NCC(=O)N(Cc2ccccc2C(F)(F)F)CC2(C)COC2)C1` ?
Output: 2.39

Task: Would you kindly repeat that for `COCCN1CCc2c(cccc2NCC(=O)N(CCN(C)C(=O)OC(C)(C)C)Cc2ccccc2C(F)(F)F)C1` ?
Output: 2.66

Task: Would you kindly repeat that for `CCN1CCc2cccc(NCC(=O)N(CCCN(C)C)Cc3ccccc3)c2C1` ?
Output: 1.87

Task: Would you kindly repeat that for `CCN1Cc2cccc(NCC(=O)N(CCN(C)C)Cc3ncccc3C(F)(F)F)c2CC1=O` ?
Output: 1.89

Task: Would you kindly repeat that for `CN(C)CCN(Cc1ccccc1)C(=O)CNc1cccc2c1CCN(C(=O)OCC(C)(C)C)C2` ?
Output: 2.60

Task: Would you kindly repeat that for `CCN1CCc2cccc(NCC(=O)N(CCNC)Cc3ccccc3)c2C1` ?
Output: 2.17

Task: Would you kindly repeat that for `CC(C)OC(=O)N1CCc2cccc(NCC(=O)N(CCN(C)C)Cc3ccccc3)c2C1` ?
Output: 1.58

Task: Would you kindly repeat that for `CN(C)CCN(Cc1ccccn1)C(=O)CNc1cccc2c1CCN(CC1CC1)C2` ?
Output: 1.46

Task: Would you kindly repeat that for CN1CCN(C(=O)CNc2cccc3c2CCN(CC2CC2)C3)C(c2ccccc2)C1 (racemic) [Reference Example 104] ?
Output: 2.37

Task: Would you kindly repeat that for `CN(CCN(Cc1ccccc1C(F)(F)F)C(=O)CNc1cccc2c1CCN(CC1CC1)C2)CC1CC1` ?
Output: 0.00

Task: Would you kindly repeat that for `CN(C)CCN(Cc1ncccc1Br)C(=O)CNc1cccc2c1CN(C1CCC1)CC2` ?
Output: 0.90

Task: Would you kindly repeat that for NC(=O)CCN(Cc1ccccc1)C(=O)/C=C/c1cccc2c1CCN(CC1CC1)C2 [Example 140, dihydrochloride] ?
Output: 1.73

Task: Would you kindly repeat that for `CCN1Cc2c(NCC(=O)N(CCN(C)C)Cc3ccccc3C(F)(F)F)cccc2C(C)(C)C1` ?
Output: 2.59

Task: Would you kindly repeat that for `CN(C)CCN(Cc1ccccc1C(F)(F)F)C(=O)CCc1cccc2c1CN(CC1CC1)CC2` ?
Output: 0.48

Task: Would you kindly repeat that for `CCN(CC)CCN(Cc1ccccc1C(F)(F)F)C(=O)CNc1cccc2c1CN(CC)CC2` ?
Output: 0.78

Task: Would you kindly repeat that for `CNCCN(Cc1ccccc1C(F)(F)F)C(=O)CNc1cccc2c1CCN(C(=O)C1CCC1)C2` ?
Output: 1.30

Task: Would you kindly repeat that for `CC(C)(O)CN(Cc1ncccc1Br)C(=O)CNc1cccc2c1CN(CC1CC1)CC2` ?
Output: 1.96

Task: Would you kindly repeat that for `CN(C)CCN(Cc1ccc(F)cc1C(F)(F)F)C(=O)CNc1cccc2c1CCN(CC1CC1)C2` ?
Output: 0.85

Task: Would you kindly repeat that for `CN(C)CCN(Cc1cccc(OC(F)(F)F)c1)C(=O)CNc1cccc2c1CN(CC1CC1)CC2` ?
Output: 1.32

Task: Would you kindly repeat that for `CN(C)CCN(Cc1ccccc1C(F)(F)F)C(=O)CNc1cccc2c1CCN(c1ncccn1)C2` ?
Output: 0.78

Task: Would you kindly repeat that for `CN(CCF)CCN(Cc1ccccc1C(F)(F)F)C(=O)CNc1cccc2c1CCN(CC1CC1)C2` ?
Output: 0.48

Task: Would you kindly repeat that for `CN(C)CCN(Cc1ccccc1C(F)(F)F)C(=O)CNc1cccc2c1CCN(CC(F)(F)F)C2` ?
Output: 1.36

Task: Would you kindly repeat that for O=C(CNc1cccc2c1CCN(C(=O)[C@@H]1C[C@@H]1F)C2)N(CCN1CCC(F)(F)CC1)Cc1ncccc1Cl (racemic) ?
Output: 2.37

Task: Would you kindly repeat that for `NS(=O)(=O)CCN(Cc1ccccc1C(F)(F)F)C(=O)CNc1cccc2c1CCN(CC1CC1)C2` ?
Output: 1.86

Task: Would you kindly repeat that for `CNCCN(Cc1ccccc1C(F)(F)F)C(=O)CNc1cccc2c1CCN(C(=O)CC(C)(C)C)C2` ?
Output: 2.04
